target: Bromodomain-containing protein 4 (Homo sapiens) (UniProt O60885); conditions: Compound concentration 20.0 uM
REPORTED_METRIC: ΔTm (°C)
API: value field is a number in °C; no unit string.

Below: 3 compounds and their reported ΔTm.
{"columns": ["SMILES_STRING", "QUANTITY_UNIT", "ΔTm"],
 "data": [
  ["C[C@@H]1O[C@@H](CC(=O)O)CC2=C1C(=O)c1c(O)cccc1C2=O", "°C", -3.04],
  ["Cc1nc(-c2cnc(NC(C)C)n(C)c2=O)ccc1Oc1ccnc(-c2cnn(C)c2)c1", "°C", -1.75],
  ["C[C@]1(c2nc3c(C(N)=O)cccc3[nH]2)CCCN1", "°C", -2.57]
]}

The reported ΔTm of the compound `COc1ccc(CNc2nc(N3CCC[C@H]3CO)ncc2C(=O)NCc2ncccn2)cc1Cl` was -1.19

The reported ΔTm of the compound `CC(=O)N[C@@H](CC(=O)O)C(=O)N[C@@H](CC(N)=O)C(=O)N[C@@H](CC(C)C)C(=O)N[C@H](C=O)CC(=O)O` was -3.48

* * *

molecular target: Cyclin-dependent kinase 2 (Homo sapiens); details: Compound concentration 20.0 uM
Description: Thermal Shift Assay. Domain: start/stop: M1-L298
Residues, ends and D or L forms follow the SMILES beside them.
REPORTED_METRIC: ΔTm
Dear colleague, please send the value followed by its unit.

Below: 3 compounds and their reported ΔTm.
{"columns": ["COMPOUND", "OBSERVED"],
 "data": [
  ["COc1ncc(C)c(-c2ccc3c(c2)[nH]c(=O)c2cnn([C@H]4CCOC4)c23)c1C", "-0.21 °C"],
  ["CC(C)N(C(=O)c1cc(F)ccc1Oc1cncnc1N1CC2(CCN(C[C@H]3CC[C@H](NS(C)(=O)=O)CC3)CC2)C1)C(C)C", "0.13 °C"],
  ["COc1nc(N)nc(Nc2cc(S(N)(=O)=O)ccc2N[C@@H](c2cccc3c2OC(F)(F)O3)c2ncccc2Cl)n1", "-0.4 °C"]
]}

As a next step, examine the compound that follows.
The reported ΔTm of the compound CSCC[C@H](NC(=O)[C@H](CC(=O)O)NC(C)=O)C(=O)N[C@@H](CCC(N)=O)C(=O)N[C@H](C=O)CC(=O)O (Ac-DMQD-aldehyde) was -0.29 °C

* * *

molecular target: Glycogen synthase kinase-3 beta (Homo sapiens) (UniProt P49841); settings: Compound concentration 20.0 uM
Sequence (P49841 whole entry, looked up): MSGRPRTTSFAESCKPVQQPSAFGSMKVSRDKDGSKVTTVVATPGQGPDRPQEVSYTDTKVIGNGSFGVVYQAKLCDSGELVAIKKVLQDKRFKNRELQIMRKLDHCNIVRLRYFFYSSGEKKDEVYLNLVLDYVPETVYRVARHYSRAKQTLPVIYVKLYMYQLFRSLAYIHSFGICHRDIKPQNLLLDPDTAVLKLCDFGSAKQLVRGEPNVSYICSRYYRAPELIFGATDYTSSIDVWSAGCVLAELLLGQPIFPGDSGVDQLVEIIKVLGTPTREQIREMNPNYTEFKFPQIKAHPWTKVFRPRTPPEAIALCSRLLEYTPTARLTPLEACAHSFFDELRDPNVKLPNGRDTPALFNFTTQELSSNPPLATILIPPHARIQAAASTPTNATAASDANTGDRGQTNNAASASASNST
Description: Thermal Shift Assay. Domain: start/stop: M26-R383
Residues, ends and D or L forms follow the SMILES beside them.
So basically: ΔTm at 0.06 °C or higher? That is met. Lower than 0.06 °C? That is not met.

Solved entries (count: 3):
{"columns": ["COMPOUND", "DISCRETE_LABEL"],
 "data": [
  ["O=C(NCCc1cc(C(=O)NO)no1)c1ccc(Cl)c(Cl)c1", "not met"],
  ["CC(C)C(=O)SCCCCCCC(=O)Nc1nc(-c2ccccc2)cs1", "met"],
  ["O=C(CNC(=O)[C@H](COP(=O)(O)O)NC(=O)CCc1c[nH]c2ccccc12)NCCCCc1ccccc1", "not met"]
]}

Problem: Has `Cn1cc(NC(=O)c2cc(F)cc(F)c2)c(C(=O)NC2CCNCC2)n1` a recorded ΔTm greater than or equal to 0.06 °C?
Solution: not met

Problem: Has CC1C(C#N)=C(N)OC2=C1C(=O)CC(c1cccc3ccccc13)C2 (stereo not drawn) a recorded ΔTm greater than or equal to 0.06 °C?
Solution: met

Problem: Has `CC(C)(C)OC(=O)Nc1ccc(CNc2nccc(Nc3cc(C(=O)OC(C)(C)C)[nH]n3)n2)cc1` a recorded ΔTm greater than or equal to 0.06 °C?
Solution: met

Problem: Has `Nc1ncnc2c1c(I)cn2[C@@H]1O[C@H](CO)[C@@H](O)[C@H]1O` a recorded ΔTm greater than or equal to 0.06 °C?
Solution: met

Problem: Has `CCCOc1ccc(CCc2nc3cc(-c4c(C)noc4C)ccc3n2CCN2CCOCC2)cc1` a recorded ΔTm greater than or equal to 0.06 °C?
Solution: met

Problem: Has `CCNC(=O)NCCSC[C@H]1O[C@@H](n2cnc3c(N)ncnc32)[C@H](O)[C@@H]1O` a recorded ΔTm greater than or equal to 0.06 °C?
Solution: not met

Problem: Has CC(=O)N[C@H](C(=O)N[C@@H](CC(=O)O)C(=O)N[C@H](C(=O)N[C@@H](C)C(=O)N[C@H](C=O)CC(=O)O)C(C)C)C(C)C (Ac-VDVAD-aldehyde) a recorded ΔTm greater than or equal to 0.06 °C?
Solution: met

Problem: Has `COc1ccc(Cc2nc(O)c3c(C)nc([C@@H](CCCc4ccccc4)[C@@H](C)O)n3n2)cc1OC` a recorded ΔTm greater than or equal to 0.06 °C?
Solution: met

* * *

target: Bromodomain-containing protein 4 (Homo sapiens) (UniProt O60885); details: Compound concentration 20.0 uM
Non-standard residues stand in square brackets, D forms with d. Residues, ends and D or L forms follow the SMILES beside them. Nle = CCCC[C@H](N)C(=O)O
So basically: ΔTm at -2 °C or higher? That is Met. Lower than -2 °C? That is Not met.

Solved entries (count: 5):
{"columns": ["COMPOUND", "DISCRETE_LABEL"],
 "data": [
  ["CCOc1ccc(Cc2cc([C@@H]3O[C@H](CO)[C@@H](O)[C@H](O)[C@H]3O)ccc2Cl)cc1", "Met"],
  ["Cn1cc(C(=O)Nc2ccc([C@@H]3C[C@H]3NCC3CC3)cc2)cn1", "Not met"],
  ["Nc1cccc(Nc2ncc(-c3ccc(Cl)cc3)o2)c1", "Met"],
  ["Cc1cc(N2C[C@@H](C)N[C@@H](C)C2)ncc1-c1ccc(-c2nc3c(ccn3C)c(=O)[nH]2)cc1", "Met"],
  ["CNC(=O)N1CCc2c(c(N3CCCc4cc(-c5cnn(C)c5)c(C(F)F)cc43)nn2C2CCOCC2)C1", "Met"]
]}

Problem: Has `Cc1c(NC(=O)c2cc(C(N)=O)nc3cc(F)ccc23)c(C(F)(F)F)nn1Cc1ccc(C#N)cc1` a recorded ΔTm greater than or equal to -2 °C?
Solution: Not met

Problem: Has `CCOC(=O)NCCCC(=O)NCCc1ccccc1` a recorded ΔTm greater than or equal to -2 °C?
Solution: Met

Problem: Has `Cc1cc(C)nc(SCC(=O)Nc2ncc(Cc3cccc4ccccc34)s2)n1` a recorded ΔTm greater than or equal to -2 °C?
Solution: Met

Problem: Has CCCC[C@@H](C=O)NC(=O)[C@H](CC(C)C)NC(=O)[C@H](CC(C)C)NC(C)=O (Ac-Leu-Leu-[Nle]-aldehyde) a recorded ΔTm greater than or equal to -2 °C?
Solution: Not met

Problem: Has `CC(C)CCn1c(CN2CCN(C(=O)C3CC3)CC2)nc2c1c(=O)n(C)c(=O)n2C` a recorded ΔTm greater than or equal to -2 °C?
Solution: Not met

Problem: Has COc1ccc(-c2ccc(-c3cn(C(=O)N4CCCCC4c4ccccc4)nn3)cc2)cc1 (stereo not drawn) a recorded ΔTm greater than or equal to -2 °C?
Solution: Not met

Problem: Has `Nc1ccccc1NC(=O)c1ccc(CNC(=O)OCc2cccnc2)cc1` a recorded ΔTm greater than or equal to -2 °C?
Solution: Met

Problem: Has `COC(=O)c1ccc(CN2CCC(O)(Cn3cnc4c(-c5ccc(CN)cc5)n(C)nc4c3=O)CC2)c(Cl)c1` a recorded ΔTm greater than or equal to -2 °C?
Solution: Not met

Problem: Has `COC(=O)C1=C(C(=O)OC)[C@@]2([C@@H](Cc3ccc(C)cc3)Nc3ccccc3)C=C[C@@H]1O2` a recorded ΔTm greater than or equal to -2 °C?
Solution: Met

Problem: Has `C[C@H](NC(=O)[C@H](Cc1ccccc1)NC(=O)OCc1ccccc1)C(=O)CF` a recorded ΔTm greater than or equal to -2 °C?
Solution: Not met

Problem: Has `CS(=O)(=O)c1ccc(Oc2cc(F)cc(C#N)c2)c2c1[C@H](O)C(F)(F)C2` a recorded ΔTm greater than or equal to -2 °C?
Solution: Not met

* * *

target: Aurora kinase A (Homo sapiens) (UniProt O14965); conditions: Compound concentration 20.0 uM
Sequence (O14965 whole entry): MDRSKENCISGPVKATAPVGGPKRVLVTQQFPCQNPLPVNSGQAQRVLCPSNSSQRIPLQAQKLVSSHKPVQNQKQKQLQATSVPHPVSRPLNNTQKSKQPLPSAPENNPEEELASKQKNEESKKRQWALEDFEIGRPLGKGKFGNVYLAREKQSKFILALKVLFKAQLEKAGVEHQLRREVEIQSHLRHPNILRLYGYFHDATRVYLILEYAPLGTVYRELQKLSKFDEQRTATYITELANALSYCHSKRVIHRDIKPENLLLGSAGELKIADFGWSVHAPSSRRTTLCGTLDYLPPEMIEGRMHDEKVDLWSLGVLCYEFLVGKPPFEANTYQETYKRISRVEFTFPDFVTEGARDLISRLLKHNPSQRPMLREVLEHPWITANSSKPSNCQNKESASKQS
Description: Thermal Shift Assay. Domain: start/stop: E122-S403
Property: ΔTm; scope: individual molecules
API: value field is a number in °C; no unit string.

{"columns": ["SMILES_STRING", "EXPERIMENTAL_SYSTEM", "QUANTITY_UNIT", "OBSERVED"],
 "data": [
  ["CN(C)Cc1ccc(S(=O)(=O)n2ccc(/C=C/C(=O)NO)c2)cc1", "Aurora kinase A (Homo sapiens) (UniProt O14965)", "°C", -0.28]
]}

Record `CC(C)c1ccc(-c2cc(=O)c3ccccc3o2)cc1` has Aurora kinase A (Homo sapiens) (UniProt O14965) ΔTm equal to -1.77

Record `Cc1cc(-c2ccccc2)cc(C(=O)NNS(=O)(=O)c2ccccc2)c1F` has Aurora kinase A (Homo sapiens) (UniProt O14965) ΔTm equal to -4.21

Record `Nc1ncnc2c1ncn2[C@@H]1O[C@H](C(=O)N2CCN(CC(=O)Nc3cccc4c3CNC4=O)CC2)[C@@H](O)[C@H]1O` has Aurora kinase A (Homo sapiens) (UniProt O14965) ΔTm equal to -1.04

Record `C[C@@H]1O[C@@H](CC(=O)O)CC2=C1C(=O)c1c(O)cccc1C2=O` has Aurora kinase A (Homo sapiens) (UniProt O14965) ΔTm equal to -2.94
